tested on: SW480sub cells; assay: Transwell matrigel invasion assay with peptide-treated SW480sub cells; assay type: cell-based, human; details: peptide 50 μM
Form field: invasion reduced compared to vehicle control (one value per entry).
Response body: numeric value in %, unit text excluded.

# count of solved cases: 3
* EENCGNPEHCLTTDWVH (A_intact) [17 amino acid peptide from the extracellular domain of C12orf59 isoform 1] | 40
* EENCGNPEHCLT (A_C-term1) | 48
* EENCGNP (A_C-term2) | 46

Moving on to the next substance.
Challenge: What measured invasion reduced compared to vehicle control is associated with SWRPQPCCIS (B_C-term2) on SW480sub cells?
Response given: 50
